target-entity: UniProt:P32302
Sequence (P32302 whole entry): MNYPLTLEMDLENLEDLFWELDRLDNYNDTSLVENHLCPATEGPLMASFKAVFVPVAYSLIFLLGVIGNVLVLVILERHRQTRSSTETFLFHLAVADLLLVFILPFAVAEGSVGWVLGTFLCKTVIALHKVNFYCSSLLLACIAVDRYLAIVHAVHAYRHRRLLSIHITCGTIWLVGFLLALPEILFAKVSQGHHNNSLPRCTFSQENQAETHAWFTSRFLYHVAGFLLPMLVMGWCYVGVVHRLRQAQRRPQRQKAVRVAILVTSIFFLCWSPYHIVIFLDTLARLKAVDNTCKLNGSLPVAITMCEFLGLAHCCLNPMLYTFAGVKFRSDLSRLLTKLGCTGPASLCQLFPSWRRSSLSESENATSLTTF
pIC50: −log10 of the molar value.
parameter-measured: pIC50

Q: GET /values?readout=pIC50&item= COc1cc(C(=O)N[C@@H]2C[C@H]3CCC[C@@H](C2)N3CC(=O)Nc2ccccc2Cl)cc(OC)c1OC
A: < 4.10

###

target-entity: C-X-C chemokine receptor type 4 (Homo sapiens, UniProt P61073)
Sequence (P61073 whole entry): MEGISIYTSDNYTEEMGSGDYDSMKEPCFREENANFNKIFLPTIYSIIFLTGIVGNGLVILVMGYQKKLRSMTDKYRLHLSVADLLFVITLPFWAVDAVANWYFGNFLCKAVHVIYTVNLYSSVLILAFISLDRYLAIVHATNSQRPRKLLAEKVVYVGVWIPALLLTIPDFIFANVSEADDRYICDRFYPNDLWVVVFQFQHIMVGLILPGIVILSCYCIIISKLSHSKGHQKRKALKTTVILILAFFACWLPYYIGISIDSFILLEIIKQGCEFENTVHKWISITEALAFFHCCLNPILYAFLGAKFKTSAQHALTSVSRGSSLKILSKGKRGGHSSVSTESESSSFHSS
parameter-measured: IC50

Q: GET /values?readout=IC50&item= COc1cc(C(=O)N[C@@H]2C[C@H]3CCC[C@@H](C2)N3CC(=O)Nc2ccccc2Cl)cc(OC)c1OC
A: > 80 µM

###

target-entity: C-X-C chemokine receptor type 6 (Homo sapiens, UniProt O00574)
Sequence (O00574 whole entry): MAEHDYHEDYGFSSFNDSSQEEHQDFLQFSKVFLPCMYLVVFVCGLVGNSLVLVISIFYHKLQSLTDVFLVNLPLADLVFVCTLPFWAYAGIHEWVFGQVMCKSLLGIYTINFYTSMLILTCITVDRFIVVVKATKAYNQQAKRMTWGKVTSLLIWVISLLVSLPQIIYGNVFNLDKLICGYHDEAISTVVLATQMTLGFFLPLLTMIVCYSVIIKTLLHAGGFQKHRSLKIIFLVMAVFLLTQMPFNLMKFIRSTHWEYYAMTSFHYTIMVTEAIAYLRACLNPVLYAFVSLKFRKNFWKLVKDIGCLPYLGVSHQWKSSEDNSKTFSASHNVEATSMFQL
assay-protocol: Antagonist activity at Prolink-tagged human CXCR6 receptor assessed as inhibition of CXCL16-induced beta-arrestin recruitment by DiscoveRx cell based assay
parameter-measured: pIC50
# pIC50 = -log10(concentration in molar units)

Q: GET /values?readout=pIC50&item= COc1cc(C(=O)N[C@@H]2C[C@H]3CCC[C@@H](C2)N3Cc2cccc(Cl)c2)cc(OC)c1OC
A: 5.02

Q: GET /values?readout=pIC50&item= COc1cccc(NC(=O)CN2[C@@H]3CCC[C@H]2C[C@H](NC(=O)c2cc(OC)c(OC)c(OC)c2)C3)c1
A: 5.24

Q: GET /values?readout=pIC50&item= COc1cc(C(=O)N[C@@H]2C[C@H]3CCC[C@@H](C2)N3CC(=O)Nc2ccccc2Cl)cc(OC)c1OC
A: 6.85

Q: GET /values?readout=pIC50&item= COc1cc(C(=O)N[C@@H]2C[C@H]3CCC[C@@H](C2)N3CC(=O)Nc2ccc(Cl)cc2Cl)cc(OC)c1OC
A: 6.80
